Exercise: state measured EC50 for each of the compounds provided.
target entity: 5-HT1A receptor (Homo sapiens (Human), UniProt P08908)
assay text: FLIPR Ca2+ flux functional assay at 5-HT1A (CHO cells)
measurement conditions: read-out: 5-HT1A EC50; Ca2+ flux, CHO cells

Previously resolved entries follow.
Q: Give EC50 (5-HT1A receptor (Homo sapiens (Human), UniProt P08908)) of the following compound: COc1cc(C(F)(F)F)c(OC)cc1CCN [Compound 2C-TFM, 2C-TFM, reference compound]
Result: > 10 µM

Q: Give EC50 (5-HT1A receptor (Homo sapiens (Human), UniProt P08908)) of the following compound: COc1cc(CCNCc2ccccc2OC)c(OC)cc1C [Compound 25D-NBOMe, 25D-NBOMe, reference compound]
Result: > 10 µM

Further cases:
Q: Give EC50 (5-HT1A receptor (Homo sapiens (Human), UniProt P08908)) of the following compound: COc1cc(CCN)c(OC)cc1Br [Compound 2C-B, 2C-B, reference compound]
Result: 33.1 µM
